Test system: SNARK
Construct: gene NUAK2
Settings: concentration: 1 μM,replicates: in singlicate; n = 1;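 also: KINOMEscan kinase panel screen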
Listing: %Inh of selected molecules
RESULT_TYPE: %Inh (%)

> print(dat)
                                   molecule  result.type  units.of.measure  observed.result
1  C[C@H]1Oc2cc(cnc2N)-c2c(nn(C)c2C#N)CN(C)C(=O)c2ccc(F)cc21         %Inh                 %                0
2  O=C(NCCNc1ccnc(NCc2ccc(F)cc2)n1)c1cc2ccccc2s1 [GSK1379944]         %Inh                 %               31
3  CCn1c(-c2nonc2N)nc2c(C#CC(C)(C)O)nc(OCCN)cc21.Cl.Cl [GSK902056]         %Inh                 %               11
4  Nc1nc(Nc2ccccc2)cc(-c2ccc3c(N)n[nH]c3c2)n1 [GSK2225749]         %Inh                 %               21
5  CN(C)CC(O)COc1ccc(Nc2nccc(-c3cnn4nc(N5CCOCC5)ccc34)n2)cc1 (stereo not shown) [GW767488]         %Inh                 %             93.6
6  Cl.Cl.NC[C@H](Cc1ccc(C(F)(F)F)cc1)NC(=O)c1cc(Br)c(-c2ccnc3[nH]ccc23)s1 [GSK1487252]         %Inh                 %             91.5
7  C[C@@H]1CCN(C(=O)CC#N)C[C@@H]1N(C)c1ncnc2[nH]ccc12         %Inh                 %               73

* * *

System: TAOK3
Conditions: concentration: 1 μM,replicates: in singlicate; n = 1
Rule: %Inh below 20% gives True. Equal to or above 20% gives False.

> print(dat)
                                   compound  class.label
1  Cl.Cl.Nc1nc(-c2ccc3c(N)n[nH]c3c2)cc(N2CCCC(NC(=O)c3ccccc3)C2)n1 (stereo not shown) [GSK2286775]         True
2  NC(=O)c1cc(-c2ccccc2)cc2c(C3CCNCC3)c[nH]c12 [GSK301362]        False
3  Cl.Oc1cc(-c2nc(-c3ccccc3)[nH]c2-c2ccncc2)ccc1Cl [SB-386023]         True
4  CCn1c(-c2nonc2N)nc2c(C#CC(C)(C)O)nc(OCCN)cc21.Cl.Cl [GSK902056]         True
5  C[C@@H](Oc1cc(-c2cnn(C3CCNCC3)c2)cnc1N)c1c(Cl)ccc(F)c1Cl        False
6  Nc1nc(Nc2ccccc2)cc(-c2ccc3c(N)n[nH]c3c2)n1 [GSK2225749]        False
7  CCN(CC)CCOc1ccc(Nc2ncc3cc(-c4c(Cl)cccc4Cl)c(=O)n(C)c3n2)cc1 [SB-601273]        False

* * *

Listing: %Inh of selected compounds
Tested on: PRKD3
Details: concentration: 1 μM,replicates: in singlicate; n = 1
RESULT_TYPE: %Inh

> print(dat)
                                   compound  observed.result
1  Cl.Cl.Nc1nc(-c2ccc3c(N)n[nH]c3c2)cc(N2CCCC(NC(=O)c3ccccc3)C2)n1 (centres unmarked)               0%
2  Cc1cc2cn[nH]c2cc1-c1cccc2c(N)c(C(N)=O)nnc12              84%
3  C=CC(=O)Nc1cc2c(Nc3ccc(F)c(Cl)c3)ncnc2cc1OCCCN1CCOCC1               0%
4  C[C@@H](Oc1cc(-c2cnn(C3CCNCC3)c2)cnc1N)c1c(Cl)ccc(F)c1Cl              63%
5  CCN(CC)CCCCNc1ncc2cc(-c3c(Cl)cccc3Cl)c(NC(=O)NC(C)(C)C)nc2n1              25%
6  Cc1ccc(-n2nc(C(C)(C)C)cc2NC(=O)Nc2ccc(OCCN3CCOCC3)c3ccccc23)cc1              16%
7  CN(C)CCOc1ccc(-c2cc(-c3c[nH]nc3-c3ccccn3)ccn2)cc1            91.5%
8  O=C(NCCNc1ccnc(NCc2ccc(F)cc2)n1)c1cc2ccccc2s1             100%

* * *

Listing: %Inh of selected molecules
Tested on: CSNK1G1
Details: concentration: 1 μM,replicates: in singlicate; n = 1
RESULT_TYPE: %Inh

> print(dat)
                                    molecule  result.type  observed.result
 1  C[C@@H](Oc1cc(-c2cnn(C3CCNCC3)c2)cnc1N)c1c(Cl)ccc(F)c1Cl         %Inh               8%
 2  Cc1n[nH]c2ccc(-c3cc(OC[C@@H](N)Cc4ccccc4)cnc3-c3ccoc3)cc12.O=C(O)C(F)(F)F.O=C(O)C(F)(F)F         %Inh              71%
 3  Cl.Cl.NC[C@H](Cc1ccc(C(F)(F)F)cc1)NC(=O)c1cc(Br)c(-c2ccnc3[nH]ccc23)s1         %Inh               0%
 4  Cc1cc2cn[nH]c2cc1-c1cccc2c(N)c(C(N)=O)nnc12         %Inh              12%
 5  Cl.Oc1cc(-c2nc(-c3ccccc3)[nH]c2-c2ccncc2)ccc1Cl         %Inh               0%
 6  Cc1ccc(-n2nc(C(C)(C)C)cc2NC(=O)Nc2ccc(OCCN3CCOCC3)c3ccccc23)cc1         %Inh               1%
 7  Cc1occc1-c1nc(N)c(OC[C@@H](N)Cc2c[nH]c3ccccc23)cc1-c1cc2c(C)n[nH]c2cn1         %Inh              79%
 8  C=CC(=O)Nc1cc2c(Nc3ccc(F)c(Cl)c3)ncnc2cc1OCCCN1CCOCC1         %Inh               0%
 9  O=C(NCCNc1ccnc(NCc2ccc(F)cc2)n1)c1cc2ccccc2s1         %Inh              32%
10   CC(C)Nc1cc(-c2ccc3c(N)n[nH]c3c2)nc(N)n1         %Inh               0%
11  CC(C)N1C(=O)Cc2cc(Nc3ncc(C(F)(F)F)c(NCc4cccc(S(C)(=O)=O)c4)n3)ccc21         %Inh               0%
12  CN(C)CC(O)COc1ccc(Nc2nccc(-c3cnn4nc(N5CCOCC5)ccc34)n2)cc1 (stereo not drawn)         %Inh              16%
13  CCN(CC)CCOc1ccc(Nc2ncc3cc(-c4c(Cl)cccc4Cl)c(=O)n(C)c3n2)cc1         %Inh              38%
14  NC(=O)c1cc(-c2ccccc2)cc2c(C3CCNCC3)c[nH]c12         %Inh               3%
15  CNC(=O)c1ccccc1Sc1ccc2c(/C=C/c3ccccn3)n[nH]c2c1         %Inh               0%

* * *

Test system: CLK3
Details: concentration: 1 μM,replicates: in singlicate; n = 1
RESULT_TYPE: %Inh (%)

> print(dat)
                           molecular.string  observed.result
1  Cc1cc2cn[nH]c2cc1-c1cccc2c(N)c(C(N)=O)nnc12               15
2  CCn1c(-c2nonc2N)nc2c(C#CC(C)(C)O)nc(OCCN)cc21.Cl.Cl               27
3  CNC(=O)c1ccccc1Sc1ccc2c(/C=C/c3ccccn3)n[nH]c2c1                0
4   CC(C)Nc1cc(-c2ccc3c(N)n[nH]c3c2)nc(N)n1               23
5  CCN(CC)CCOc1ccc(Nc2ncc3cc(-c4c(Cl)cccc4Cl)c(=O)n(C)c3n2)cc1                0

* * *

System: MYLK4
Conditions: concentration: 1 μM,replicates: in singlicate; n = 1
Rule: %Inh below 30% gives yes. Equal to or above 30% gives no.

> print(dat)
                                   compound  class.label
1  Cl.Cl.NC[C@H](CC1CCCCC1)NC(=O)c1cc(Br)c(-c2ccnc3[nH]ccc23)s1           no
2  O=C(NCCCN1CCOC1=O)c1cnc(NCc2cc(Cl)ccc2Cl)nc1NC1CCCC1          yes
3   CC(C)Nc1cc(-c2ccc3c(N)n[nH]c3c2)nc(N)n1           no
4  C[C@@H]1CCN(C(=O)CC#N)C[C@@H]1N(C)c1ncnc2[nH]ccc12          yes
5  Cl.Cl.Nc1nc(-c2ccc3c(N)n[nH]c3c2)cc(N2CCCC(NC(=O)c3ccccc3)C2)n1 (stereo not drawn)          yes
6  CN(C)CC(O)COc1ccc(Nc2nccc(-c3cnn4nc(N5CCOCC5)ccc34)n2)cc1 (stereo not drawn)           no
7  Cc1n[nH]c2ccc(-c3cc(OC[C@@H](N)Cc4ccccc4)cnc3-c3ccoc3)cc12.O=C(O)C(F)(F)F.O=C(O)C(F)(F)F          yes
8  CNC(=O)c1ccccc1Sc1ccc2c(/C=C/c3ccccn3)n[nH]c2c1          yes

Measured values drawn from paper PMC5540273 for this set.
